pIC50, Aromatase (Homo sapiens), per-entry values.
FYI, pIC50 means -log10 of a concentration in mol per litre.

Observe how each entry below is paired with its result.
[[record]]
molecule = "C[C@@H]1CC2C3CCC(=O)C3(C)CCC2C2(C)CCCC=C12 (stereo partly drawn)"
outcome_measure = "pIC50"
test_result = 7.31

[[record]]
molecule = "CO[C@H]1CC2C3CCC(=O)C3(C)CCC2C2(C)CCCC=C12 (stereo partly drawn)"
outcome_measure = "pIC50"
test_result = 6.92


Task: Provide Aromatase (Homo sapiens) pIC50 reading for CC[C@@H]1CC2C3CCC(=O)C3(C)CCC2C2(C)CCCC=C12 (stereo partly drawn) .
Output: 6.49

Task: Provide Aromatase (Homo sapiens) pIC50 reading for CC[C@H]1CC2C3CCC(=O)C3(C)CCC2C2(C)CCCC=C12 (stereo partly drawn) .
Output: 6.96

Task: Provide Aromatase (Homo sapiens) pIC50 reading for C[C@H]1CC2C3CCC(=O)C3(C)CCC2C2(C)CCCC=C12 (stereo partly drawn) .
Output: 7.43

Task: Provide Aromatase (Homo sapiens) pIC50 reading for CC(=O)O[C@H]1CC2C3CCC(=O)C3(C)CCC2C2(C)CCCC=C12 (stereo partly drawn) .
Output: 6.80

Task: Provide Aromatase (Homo sapiens) pIC50 reading for CCC[C@H]1CC2C3CCC(=O)C3(C)CCC2C2(C)CCCC=C12 (stereo partly drawn) .
Output: 6.64

Task: Provide Aromatase (Homo sapiens) pIC50 reading for CCC[C@@H]1CC2C3CCC(=O)C3(C)CCC2C2(C)CCCC=C12 (stereo partly drawn) .
Output: 6.36

Task: Provide Aromatase (Homo sapiens) pIC50 reading for C[C@H]1CC2C(CCC3(C)C(O)CCC23)C2(C)CCCC=C12 (stereo partly drawn) .
Output: 5.43

---

# subject.of.test: Aromatase (Homo sapiens, UniProt P11511)
# Sequence (P11511 whole entry): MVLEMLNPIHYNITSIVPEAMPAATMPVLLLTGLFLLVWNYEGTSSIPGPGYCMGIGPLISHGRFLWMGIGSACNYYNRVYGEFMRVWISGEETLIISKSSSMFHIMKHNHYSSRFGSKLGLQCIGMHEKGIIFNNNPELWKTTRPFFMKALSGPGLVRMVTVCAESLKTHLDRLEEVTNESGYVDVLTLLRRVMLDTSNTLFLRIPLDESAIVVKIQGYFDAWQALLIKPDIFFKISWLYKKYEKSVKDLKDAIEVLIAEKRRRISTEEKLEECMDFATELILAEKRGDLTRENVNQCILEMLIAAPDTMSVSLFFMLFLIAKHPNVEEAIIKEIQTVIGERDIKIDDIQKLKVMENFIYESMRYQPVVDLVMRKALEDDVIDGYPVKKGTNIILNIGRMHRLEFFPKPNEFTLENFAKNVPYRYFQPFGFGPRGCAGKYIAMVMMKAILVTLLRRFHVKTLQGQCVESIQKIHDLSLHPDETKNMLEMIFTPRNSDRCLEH
pKi: −log10 of the molar value.
I would appreciate it if you labelled entries true when pKi is 6 or higher, otherwise false.

Example cases with answers are listed next.
[[record]]
compound = "C[C@H]1CC2C(CCC3(C)C(O)CCC23)C2(C)CCCC=C12 (stereo partly specified)"
subject_of_test = "Aromatase (Homo sapiens, UniProt P11511)"
group_label = "true"

[[record]]
compound = "CC(=O)O[C@@H]1CC2C3CCC(=O)C3(C)CCC2C2(C)CCCC=C12 (stereo partly specified)"
subject_of_test = "Aromatase (Homo sapiens, UniProt P11511)"
group_label = "true"

[[record]]
compound = "CC[C@H]1CC2C3CCC(=O)C3(C)CCC2C2(C)CCCC=C12 (stereo partly specified)"
subject_of_test = "Aromatase (Homo sapiens, UniProt P11511)"
group_label = "true"

[[record]]
compound = "CCCCCCCC[C@@H]1CC2C3CCC(=O)C3(C)CCC2C2(C)CCCC=C12 (stereo partly specified)"
subject_of_test = "Aromatase (Homo sapiens, UniProt P11511)"
group_label = "false"

[[record]]
compound = "C[C@@H]1CC2C3CCC(=O)C3(C)CCC2C2(C)CCCC=C12 (stereo partly specified)"
subject_of_test = "Aromatase (Homo sapiens, UniProt P11511)"
group_label = "true"


Task: Kindly determine if pKi recorded for CC(=O)O[C@H]1CC2C3CCC(=O)C3(C)CCC2C2(C)CCCC=C12 (stereo partly specified) is above or exactly 6.
Output: true

Task: Kindly determine if pKi recorded for CCCCC[C@@H]1CC2C(CCC3(C)C(O)CCC23)C2(C)CCCC=C12 (stereo partly specified) is above or exactly 6.
Output: false

Task: Kindly determine if pKi recorded for CC[C@@H]1CC2C3CCC(=O)C3(C)CCC2C2(C)CCCC=C12 (stereo partly specified) is above or exactly 6.
Output: true

Task: Kindly determine if pKi recorded for CO[C@H]1CC2C3CCC(=O)C3(C)CCC2C2(C)CCCC=C12 (stereo partly specified) is above or exactly 6.
Output: true

Task: Kindly determine if pKi recorded for C[C@H]1CC2C3CCC(=O)C3(C)CCC2C2(C)CCCC=C12 (stereo partly specified) is above or exactly 6.
Output: true

Task: Kindly determine if pKi recorded for CCCCC[C@H]1CC2C(CCC3(C)C(O)CCC23)C2(C)CCCC=C12 (stereo partly specified) is above or exactly 6.
Output: false

Task: Kindly determine if pKi recorded for CCCCC[C@H]1CC2C3CCC(=O)C3(C)CCC2C2(C)CCCC=C12 (stereo partly specified) is above or exactly 6.
Output: true

Task: Kindly determine if pKi recorded for CO[C@@H]1CC2C3CCC(=O)C3(C)CCC2C2(C)CCCC=C12 (stereo partly specified) is above or exactly 6.
Output: true

Task: Kindly determine if pKi recorded for CC[C@H]1CC2C(CCC3(C)C(O)CCC23)C2(C)CCCC=C12 (stereo partly specified) is above or exactly 6.
Output: true

Task: Kindly determine if pKi recorded for CC[C@@H]1CC2C(CCC3(C)C(O)CCC23)C2(C)CCCC=C12 (stereo partly specified) is above or exactly 6.
Output: true

Task: Kindly determine if pKi recorded for CCC[C@@H]1CC2C3CCC(=O)C3(C)CCC2C2(C)CCCC=C12 (stereo partly specified) is above or exactly 6.
Output: true

Task: Kindly determine if pKi recorded for CCCCCCCC[C@H]1CC2C3CCC(=O)C3(C)CCC2C2(C)CCCC=C12 (stereo partly specified) is above or exactly 6.
Output: false

Task: Kindly determine if pKi recorded for CC12CCCC=C1CCC1C2CCC2(C)C1CC[C@@H]2O (stereo partly specified) is above or exactly 6.
Output: true

Task: Kindly determine if pKi recorded for C[C@@H]1CC2C(CCC3(C)C(O)CCC23)C2(C)CCCC=C12 (stereo partly specified) is above or exactly 6.
Output: true

Task: Kindly determine if pKi recorded for CCC[C@H]1CC2C3CCC(=O)C3(C)CCC2C2(C)CCCC=C12 (stereo partly specified) is above or exactly 6.
Output: true

Source of measurements: ChEMBL document CHEMBL1129695
